The measured values listed here are drawn from PubChem BioAssay (NCI).

Each record here notes measured TGI.
Tested on: 786-0 renal
test.protocol: NCI tumour cell line growth inhibition, 48 h

Examples from the recorded data:
[
  {
    "molecule": "NC1=NN(c2ccccc2)C(=O)C1/C(=N\\NC(=O)c1cc2ccccc2cc1O)C(=O)Nc1nc([N+](=O)[O-])cs1 (stereo not drawn)",
    "experimental.endpoint": "TGI",
    "result": "> 100 µM"
  },
  {
    "molecule": "O=C(c1ccco1)c1ccccc1C(=O)c1ccco1",
    "experimental.endpoint": "TGI",
    "result": "> 100 µM"
  }
]

Look up TGI: `COc1cc(C2=C(C)[C@@H]3CN(CC=C3c3ccc(Cl)cc3)C2)c(S(=O)(=O)O)cc1OC` > 100 µM

* * *

Each record here notes measured TGI.
Tested on: EKVX NSCLC
test.protocol: NCI tumour cell line growth inhibition, 48 h
Lab book: enter the figure in µM, no units written.

Look up TGI: `FC(F)(F)c1[nH]ncc1-c1nc2c(N3CCCCC3)cc3[nH]ncc3c2c2c1CCCC2` 2.48

Another molecule: Cc1cc(O)c(C2=NN(c3ccc(S(N)(=O)=O)cc3)C(c3ccccc3O)C2)cc1Cl (configuration not stated) 6.52

Another molecule: `CCCCCCCCCCCCC/C=C1\C[C@H](O)COC1=O` 32

* * *

Tested on: SR leukemia
test.protocol: NCI tumour cell line growth inhibition, 48 h
experimental.endpoint: TGI

Examples from the recorded data:
[
  {
    "molecule": "CSC1=Nc2c(c(C)c(-c3ccccc3)n2CCCCl)C2=NC(=O)CN12",
    "TGI": "> 100 µM"
  },
  {
    "molecule": "CCCCC1C(=O)N(c2ccc(S(=O)(=O)Nc3ccccn3)cc2)N(c2ccc(O)c(C(=O)O)c2)C1=O (configuration not stated)",
    "TGI": "> 100 µM"
  },
  {
    "molecule": "Cc1cc(S(=O)(=O)Nc2nc3ccccc3[nH]2)c(S)cc1Cl",
    "TGI": "> 100 µM"
  },
  {
    "molecule": "N#C/C(=C\\c1ccc(F)cc1)c1nc2ccccc2c(=O)[nH]1",
    "TGI": "> 100 µM"
  },
  {
    "molecule": "O=C(c1ccco1)c1ccccc1C(=O)c1ccco1",
    "TGI": "> 100 µM"
  },
  {
    "molecule": "C=CCOc1ccc(C2(c3ccc(OCC=C)cc3)C(=O)Nc3ccccc32)cc1",
    "TGI": "> 10 µM"
  }
]

Look up TGI: COC(=O)/C=C\[C@@H]1[C@H](C)N1S(=O)(=O)c1ccc(C)cc1 (some centres not stated) > 100 µM

Another molecule: `COc1cc(/C=C2\N=C(c3ccccc3)N(c3nc4cc(C)c(C)cc4s3)C2=O)cc(OC)c1OC` 53.1 µM

Another molecule: `c1cc2[nH]snc2c2cncc12` > 100 µM

Another molecule: `N#Cc1nc(Sc2cnsn2)c(Sc2cnsn2)nc1C#N` > 100 µM

Another molecule: Nc1ccc(C(=O)NN2C(=O)C(Cl)C2c2cc(Br)cc(Br)c2O)cc1 (configuration not stated) > 100 µM

Another molecule: `CCOC(=O)/C(=C\c1ccnc2ccccc12)P(=O)(OCC)OCC` 5.38 µM

* * *

System: MDA-N
test.protocol: NCI tumour cell line growth inhibition, 48 h
experimental.endpoint: TGI

Examples from the recorded data:
[
  {
    "molecule": "CC1=C(C(=O)NNC(=O)C(N)=O)CC(C(=O)NNC(=O)C(N)=O)=C(C)N1",
    "test.target": "MDA-N",
    "experimental.endpoint": "TGI",
    "result": "> 100 µM"
  },
  {
    "molecule": "CCOC(=O)c1c(C)noc1/N=N/N(CCO)CCO",
    "test.target": "MDA-N",
    "experimental.endpoint": "TGI",
    "result": "> 100 µM"
  }
]

Look up TGI: CCC(C(=O)c1cccs1)C(O)(C(F)(F)F)C(F)(F)F (stereo not drawn) > 100 µM

Another molecule: `COc1cc(CNc2nc3ccccc3n2Cc2ccccc2)cc(CN2CCOCC2)c1O` 68.2 µM

Another molecule: `C/C(=C1/N=C(c2ccccc2)OC1=O)c1ccc(C)cc1` > 100 µM

Another molecule: OC12CC3c4ccccc4NC3C3Oc4cccc5c4C31CCN(CC1CC1)C2C5 (stereo not drawn) 35.1 µM

Another molecule: `COc1cc(/C=C/C=C2\CCC/C(=C\C=C\c3ccc(O)c(OC)c3)C2=O)ccc1O` > 100 µM

Another molecule: `CC(=O)c1cccc(Nc2c3ccccc3nc3occc23)c1` > 100 µM
